assay: Resistance to protease digestion with pronase; assay type: in vitro ADME, Streptomyces griseus; details: 10 µM peptide in 2.5 × 10^−6 w/v% pronase/PBS, 37 °C, RP-HPLC, α-CHCA internal standard, read-out: intact peptide after incubation with pronase
Numbered stars: 1 amine (or outer) side, 2 acyl side, 3 side chain; on linkers, the order of the positions; unused ones are H or OH. Square brackets hold non-standard residues; d marks the D form. Peptide text beside a SMILES is read from it. * marks the point of attachment. 5FAM = O=C1OC2(c3ccc(O)cc3Oc3cc(O)ccc32)c2ccc(C(=O)*)cc21; X1 = CO[C@H]1CC(N[*:1])(C(=O)[*:2])C[C@@H]1OC; αMeL = CC(C)C[C@](C)(N)C(=O)O; Ac5c = NC1(C(=O)O)CCCC1

# COMPOUND, remaining at 4 h, 10 µM
records = [
    ("CO[C@H]1CC(NC(=O)[C@H](CCCNC(=N)N)NC(=O)[C@H](CCCNC(=N)N)NC(=O)C2(NC(=O)[C@H](CCCNC(=N)N)NC(=O)[C@H](CCCNC(=N)N)NC(=O)C3(NC(=O)[C@H](CCCNC(=N)N)NC(=O)[C@H](CCCNC(=N)N)NC(=O)CNC(=O)c4ccc5c(c4)C(=O)OC54c5ccc(O)cc5Oc5cc(O)ccc54)C[C@H](OC)[C@@H](OC)C3)C[C@H](OC)[C@@H](OC)C2)(C(N)=O)C[C@@H]1OC [Ac5c^dOM peptide] (5FAM-GRR[X1]RR[X1]RR[X1]-NH2)", "~80%"),
    ("CC(C)C[C@H](NC(=O)[C@H](CCCNC(=N)N)NC(=O)[C@H](CCCNC(=N)N)NC(=O)[C@H](CC(C)C)NC(=O)[C@H](CCCNC(=N)N)NC(=O)[C@H](CCCNC(=N)N)NC(=O)[C@H](CC(C)C)NC(=O)[C@H](CCCNC(=N)N)NC(=O)[C@H](CCCNC(=N)N)NC(=O)CNC(=O)c1ccc2c(c1)C(=O)OC21c2ccc(O)cc2Oc2cc(O)ccc21)C(N)=O [Leu peptide] (5FAM-GRRLRRLRRL-NH2)", "0%"),
    ("CC(C)C[C@](C)(NC(=O)[C@H](CCCNC(=N)N)NC(=O)[C@H](CCCNC(=N)N)NC(=O)[C@](C)(CC(C)C)NC(=O)[C@H](CCCNC(=N)N)NC(=O)[C@H](CCCNC(=N)N)NC(=O)[C@](C)(CC(C)C)NC(=O)[C@H](CCCNC(=N)N)NC(=O)[C@H](CCCNC(=N)N)NC(=O)CNC(=O)c1ccc2c(c1)C(=O)OC21c2ccc(O)cc2Oc2cc(O)ccc21)C(N)=O [(αMe)Leu peptide] (5FAM-GRR[αMeL]RR[αMeL]RR[αMeL]-NH2)", "~80%"),
    ("N=C(N)NCCC[C@H](NC(=O)CNC(=O)c1ccc2c(c1)C(=O)OC21c2ccc(O)cc2Oc2cc(O)ccc21)C(=O)N[C@@H](CCCNC(=N)N)C(=O)NC1(C(=O)N[C@@H](CCCNC(=N)N)C(=O)N[C@@H](CCCNC(=N)N)C(=O)NC2(C(=O)N[C@@H](CCCNC(=N)N)C(=O)N[C@@H](CCCNC(=N)N)C(=O)NC3(C(N)=O)CCCC3)CCCC2)CCCC1 [Ac5c peptide] (5FAM-GRR[Ac5c]RR[Ac5c]RR[Ac5c]-NH2)", "~80%"),
]
